Kindly supply the reported IC50, TF-1 cell proliferation values for the records listed here.
experimental_system: T1, human GM-CSFRα, full length on cells (human, UniProt P15509 23-400)
T1 sequence: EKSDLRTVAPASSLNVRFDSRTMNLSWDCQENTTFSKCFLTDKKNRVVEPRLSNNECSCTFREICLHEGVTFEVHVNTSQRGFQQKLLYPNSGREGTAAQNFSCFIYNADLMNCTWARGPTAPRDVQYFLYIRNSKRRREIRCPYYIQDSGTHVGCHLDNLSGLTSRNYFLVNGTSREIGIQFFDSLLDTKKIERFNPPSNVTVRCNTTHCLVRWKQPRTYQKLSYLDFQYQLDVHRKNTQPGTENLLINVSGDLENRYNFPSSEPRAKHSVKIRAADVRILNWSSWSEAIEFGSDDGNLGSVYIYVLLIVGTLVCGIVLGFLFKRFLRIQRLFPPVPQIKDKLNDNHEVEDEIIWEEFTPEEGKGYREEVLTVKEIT
protocol_summary: cell-based or functional assay
Numbers only, in µg/mL.

Give me IC50, TF-1 cell proliferation for each of these binders, listed below.
1. E35-scFv LS28F (scFv, V domains shown) VH: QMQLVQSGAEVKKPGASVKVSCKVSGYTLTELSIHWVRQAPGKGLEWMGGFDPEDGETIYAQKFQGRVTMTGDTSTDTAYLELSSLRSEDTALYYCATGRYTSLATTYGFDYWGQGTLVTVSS VL: EIVMTQSPATLSLSPGERATLSCRASQFVSSYLAWYQQKPGQAPRLLIYGASSRATGIPDRFSGSGSGTDFTLTISRLEPEDFAVYYCQQYDNWPYTFGQGTKLEIK
2. E35-scFv LD92T (scFv, V domains shown) VH: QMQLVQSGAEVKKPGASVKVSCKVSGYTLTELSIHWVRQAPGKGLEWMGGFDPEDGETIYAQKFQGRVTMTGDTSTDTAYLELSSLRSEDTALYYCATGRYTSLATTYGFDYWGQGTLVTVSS VL: EIVMTQSPATLSLSPGERATLSCRASQSVSSYLAWYQQKPGQAPRLLIYGASSRATGIPDRFSGSGSGTDFTLTISRLEPEDFAVYYCQQYTNWPYTFGQGTKLEIK
3. E35-scFv LG50H (scFv, V domains shown) VH: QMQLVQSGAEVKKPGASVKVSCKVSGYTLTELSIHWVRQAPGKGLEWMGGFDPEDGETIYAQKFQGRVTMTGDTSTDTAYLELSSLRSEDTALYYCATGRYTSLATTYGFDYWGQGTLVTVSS VL: EIVMTQSPATLSLSPGERATLSCRASQSVSSYLAWYQQKPGQAPRLLIYHASSRATGIPDRFSGSGSGTDFTLTISRLEPEDFAVYYCQQYDNWPYTFGQGTKLEIK

Found:
1: 0.1; 2: 0.494; 3: 4.29

Working through the 6 binders below one at a time, give IC50, TF-1 cell proliferation for each.
1. E35-scFv LA51H (scFv, V domains shown) VH: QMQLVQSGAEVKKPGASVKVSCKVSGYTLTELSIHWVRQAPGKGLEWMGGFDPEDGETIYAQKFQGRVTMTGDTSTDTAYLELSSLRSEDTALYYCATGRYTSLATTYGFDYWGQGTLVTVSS VL: EIVMTQSPATLSLSPGERATLSCRASQSVSSYLAWYQQKPGQAPRLLIYGHSSRATGIPDRFSGSGSGTDFTLTISRLEPEDFAVYYCQQYDNWPYTFGQGTKLEIK
2. E35-scFv LQ27T (scFv, V domains shown) VH: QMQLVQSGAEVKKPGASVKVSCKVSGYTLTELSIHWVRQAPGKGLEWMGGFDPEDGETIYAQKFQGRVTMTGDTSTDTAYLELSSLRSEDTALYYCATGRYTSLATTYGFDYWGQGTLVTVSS VL: EIVMTQSPATLSLSPGERATLSCRASTSVSSYLAWYQQKPGQAPRLLIYGASSRATGIPDRFSGSGSGTDFTLTISRLEPEDFAVYYCQQYDNWPYTFGQGTKLEIK
3. E35-scFv LS30L (scFv, V domains shown) VH: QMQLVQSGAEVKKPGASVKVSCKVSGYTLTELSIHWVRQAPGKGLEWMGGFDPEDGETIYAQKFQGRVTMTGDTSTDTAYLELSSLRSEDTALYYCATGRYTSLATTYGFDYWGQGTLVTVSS VL: EIVMTQSPATLSLSPGERATLSCRASQSVLSYLAWYQQKPGQAPRLLIYGASSRATGIPDRFSGSGSGTDFTLTISRLEPEDFAVYYCQQYDNWPYTFGQGTKLEIK
4. E35-scFv LD92H (scFv, V domains shown) VH: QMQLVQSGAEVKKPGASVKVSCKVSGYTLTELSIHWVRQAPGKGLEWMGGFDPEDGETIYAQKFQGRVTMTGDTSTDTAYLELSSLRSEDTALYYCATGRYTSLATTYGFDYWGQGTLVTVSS VL: EIVMTQSPATLSLSPGERATLSCRASQSVSSYLAWYQQKPGQAPRLLIYGASSRATGIPDRFSGSGSGTDFTLTISRLEPEDFAVYYCQQYHNWPYTFGQGTKLEIK
5. E35-scFv LS52N (scFv, V domains shown) VH: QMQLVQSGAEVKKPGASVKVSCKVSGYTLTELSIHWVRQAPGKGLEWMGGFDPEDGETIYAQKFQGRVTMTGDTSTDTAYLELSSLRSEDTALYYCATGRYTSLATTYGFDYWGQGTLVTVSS VL: EIVMTQSPATLSLSPGERATLSCRASQSVSSYLAWYQQKPGQAPRLLIYGANSRATGIPDRFSGSGSGTDFTLTISRLEPEDFAVYYCQQYDNWPYTFGQGTKLEIK
6. E35-scFv LD92K (scFv, V domains shown) VH: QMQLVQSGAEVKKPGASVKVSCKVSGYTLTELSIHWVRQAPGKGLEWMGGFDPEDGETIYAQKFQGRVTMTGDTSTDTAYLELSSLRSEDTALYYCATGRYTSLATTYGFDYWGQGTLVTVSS VL: EIVMTQSPATLSLSPGERATLSCRASQSVSSYLAWYQQKPGQAPRLLIYGASSRATGIPDRFSGSGSGTDFTLTISRLEPEDFAVYYCQQYKNWPYTFGQGTKLEIK

Found:
1. 0.162
2. 0.113
3. 0.069
4. 0.53
5. 0.253
6. 0.64

Lookup: Please list IC50, TF-1 cell proliferation recorded for the binder E35-scFv LQ27L (scFv, V domains shown) VH: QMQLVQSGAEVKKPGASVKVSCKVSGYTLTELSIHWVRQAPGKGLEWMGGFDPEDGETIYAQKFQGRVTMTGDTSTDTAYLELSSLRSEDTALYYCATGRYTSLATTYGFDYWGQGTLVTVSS VL: EIVMTQSPATLSLSPGERATLSCRASLSVSSYLAWYQQKPGQAPRLLIYGASSRATGIPDRFSGSGSGTDFTLTISRLEPEDFAVYYCQQYDNWPYTFGQGTKLEIK
Found: 0.128
